Values from ChEMBL document CHEMBL1136835

# Species on record: Homo sapiens
# test_summary: Ratio of Ki for human cloned CB1 receptor to Ki for human cloned CB2 receptor
Collected Ratio Ki values appear next to each entry.
Field format: numeric only.

> print(dat)
                                     smiles  value
1  Cc1ccc(-c2n[nH]c(CC3CCCCC3)n2)cc1S(=O)(=O)N1CCOCC1     11
2  Cc1ccc(NC(=O)[C@H]2C(C)(C)[C@@H]3CC[C@@]2(C)C3)cc1S(=O)(=O)N1CCOCC1    130
3  Cc1ccc(-c2nc(CC(C)(C)C)cs2)cc1S(=O)(=O)N1CCOCC1     38
4  Cc1ccc(-c2cc(CC3CCCCC3)[nH]n2)cc1S(=O)(=O)N1CCOCC1     16

Next up:
Would you kindly share the measured Ratio Ki for Cc1ccc(-c2cc(CC(C)(C)C)[nH]n2)cc1S(=O)(=O)N1CCOCC1 ?
10

====

# tested_on: Cannabinoid receptor 2 (Homo sapiens, UniProt P34972)
# Sequence (P34972 whole entry): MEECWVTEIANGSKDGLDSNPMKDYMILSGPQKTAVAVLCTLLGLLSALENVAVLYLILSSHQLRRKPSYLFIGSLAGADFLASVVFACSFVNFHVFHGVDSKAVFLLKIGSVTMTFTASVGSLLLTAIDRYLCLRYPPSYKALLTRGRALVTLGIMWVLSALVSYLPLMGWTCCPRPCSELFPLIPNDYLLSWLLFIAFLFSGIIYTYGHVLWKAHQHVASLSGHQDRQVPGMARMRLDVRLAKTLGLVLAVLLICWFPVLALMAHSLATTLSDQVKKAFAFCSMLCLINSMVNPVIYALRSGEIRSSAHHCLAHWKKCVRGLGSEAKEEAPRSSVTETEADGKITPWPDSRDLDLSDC
# test_summary: Agonist activity at human cloned CB2 receptor assessed as stimulation of [35S]GTPgammaS binding
Collected EC50 values appear next to each entry.
Your answer should be a number followed by the unit of measure.

Known results for molecules:
> print(dat)
                                     smiles  measured.metric   value
1  Cc1ccc(-c2nc(CC3CCCCC3)cs2)cc1S(=O)(=O)N1CCOCC1             EC50  120 nM
2  Cc1ccc(-c2n[nH]c(C(C)(C)C)n2)cc1S(=O)(=O)N1CCOCC1             EC50  130 nM

Would you kindly share the measured EC50 for Cc1ccc(-c2nc(C(C)(C)C)cs2)cc1S(=O)(=O)N1CCOCC1 ?
21 nM

Note, next up: Cc1ccc(-c2noc(C(C)(C)C)n2)cc1S(=O)(=O)N1CCOCC1
77 nM

Note, next up: Cc1ccc(-c2cc(CC(C)(C)C)[nH]n2)cc1S(=O)(=O)N1CCOCC1
120 nM

====

# test_summary: Metabolic stability in rat liver microsomes after 30 mins
# Assay type: ADME, Microsome
# condition_set: read-out: Stability
measured_metric: remaining at 0.5 h (%)
Write it as a number; the unit % goes unstated.

Would you kindly share the measured remaining at 0.5 h for Cc1ccc(NC(=O)C2C(C)(C)C2(C)C)cc1S(=O)(=O)N1CCOCC1 ?
2

====

Reported pKi, Cannabinoid receptor 1 (Homo sapiens).
// returns pKi (minus log10 of molar concentration), number only

Known results for compounds:
> print(dat)
                                   compound  measured.metric  value
1  Cc1ccc(-c2c[nH]c(C(C)(C)C)n2)cc1S(=O)(=O)N1CCOCC1              pKi   6.11
2  Cc1ccc(-c2n[nH]c(CC(C)(C)C)n2)cc1S(=O)(=O)N1CCOCC1              pKi   6.85
3  Cc1ccc(C(=O)N[C@H]2C(C)(C)[C@@H]3CC[C@@]2(C)C3)cc1S(=O)(=O)N1CCOCC1              pKi   6.27
4  Cc1ccc(-c2nc(CC(C)(C)C)cs2)cc1S(=O)(=O)N1CCOCC1              pKi   6.70

Would you kindly share the measured pKi for Cc1ccc(NC(=O)C2CCCCC2C)cc1S(=O)(=O)N1CCOCC1 (stereo unspecified) ?
5.74

====

# tested_on: Cannabinoid receptor 1 (Homo sapiens)
# Sequence (P21554 whole entry): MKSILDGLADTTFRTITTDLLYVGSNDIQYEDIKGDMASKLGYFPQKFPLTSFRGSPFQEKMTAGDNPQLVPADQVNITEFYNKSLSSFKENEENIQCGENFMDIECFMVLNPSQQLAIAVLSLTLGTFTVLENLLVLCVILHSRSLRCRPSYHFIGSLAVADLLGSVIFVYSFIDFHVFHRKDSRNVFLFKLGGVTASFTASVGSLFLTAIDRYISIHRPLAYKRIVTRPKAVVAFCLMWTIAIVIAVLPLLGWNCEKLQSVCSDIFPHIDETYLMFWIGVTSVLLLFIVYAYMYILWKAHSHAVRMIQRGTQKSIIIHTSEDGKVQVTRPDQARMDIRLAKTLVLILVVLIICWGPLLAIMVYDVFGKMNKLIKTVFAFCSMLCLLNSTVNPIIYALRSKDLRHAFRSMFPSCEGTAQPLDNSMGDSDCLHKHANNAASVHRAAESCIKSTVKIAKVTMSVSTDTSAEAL
pKi: −log10 of the molar value.
Assign true (1) to entries whose pKi meets or exceeds 6; assign false (0) to the rest.

Please review the entries below; each comes with its answer.
> print(dat)
                                     smiles      class
1  Cc1ccc(-c2nc(C(C)(C)C)cs2)cc1S(=O)(=O)N1CCOCC1   true (1)
2  Cc1ccc(-c2noc(C(C)(C)C)n2)cc1S(=O)(=O)N1CCOCC1   true (1)
3  Cc1ccc(-c2nnn(CC(C)(C)C)n2)cc1S(=O)(=O)N1CCOCC1   true (1)
4  Cc1ccc(NC(=O)C2CCCCC2)cc1S(=O)(=O)N1CCOCC1  false (0)

Shifting focus to the molecule that follows.
Determine whether measured pKi meets or exceeds 6 for Cc1ccc(NC(=O)[C@@H]2C(C)(C)[C@@H]3CC[C@@]2(C)C3)cc1S(=O)(=O)N1CCOCC1
true (1)

====

# Species: Homo sapiens
# test_summary: Ratio of Ki for human cloned CB1 receptor to Ki for human cloned CB2 receptor
Collected Ratio Ki values appear next to each entry.

Known results for compounds:
> print(dat)
                                     smiles  value
1  Cc1ccc(NC(=O)C2CCCCC2)cc1S(=O)(=O)N1CCOCC1     16
2  Cc1ccc(-c2nc(C(C)(C)C)cs2)cc1S(=O)(=O)N1CCOCC1     47
3  Cc1ccc(-c2nnn(CC3CCCCC3)n2)cc1S(=O)(=O)N1CCOCC1    6.9

Would you kindly share the measured Ratio Ki for Cc1ccc(NC(=O)C2(C)CCCCC2)cc1S(=O)(=O)N1CCOCC1 ?
34

Note, next up: Cc1ccc(NC(=O)[C@@H]2C(C)(C)[C@@H]3CC[C@@]2(C)C3)cc1S(=O)(=O)N1CCOCC1
380

Note, next up: Cc1ccc(NC(=O)C(C(C)(C)C)C(C)(C)C)cc1S(=O)(=O)N1CCOCC1
110

Note, next up: Cc1ccc(NC(=O)C2C(C)(C)C2(C)C)cc1S(=O)(=O)N1CCOCC1
150

====

# tested_on: Cannabinoid receptor 2 (Homo sapiens, UniProt P34972)
# test_summary: Agonist activity at human cloned CB2 receptor assessed as stimulation of [35S]GTPgammaS binding
Collected pEC50 values appear next to each entry.
// returns pEC50 (minus log10 of molar concentration), number only

Known results for compounds:
> print(dat)
                                     smiles  measured.metric  value
1  Cc1ccc(-c2nnn(CC3CCCCC3)n2)cc1S(=O)(=O)N1CCOCC1            pEC50   7.11
2  Cc1ccc(NC(=O)[C@@H]2C(C)(C)[C@@H]3CC[C@@]2(C)C3)cc1S(=O)(=O)N1CCOCC1            pEC50   8.02
3  Cc1ccc(NC(=O)[C@H]2C(C)(C)[C@@H]3CC[C@@]2(C)C3)cc1S(=O)(=O)N1CCOCC1            pEC50   7.31

Next up:
Would you kindly share the measured pEC50 for Cc1ccc(NC(=O)C(C(C)(C)C)C(C)(C)C)cc1S(=O)(=O)N1CCOCC1 ?
7.51

====

Reported Ki, Cannabinoid receptor 1 (Homo sapiens).
Write it as a number; the unit nM goes unstated.

> print(dat)
                                   compound  measured.metric  value
1  Cc1ccc(NC(=O)C2CCCCC2(C)C)cc1S(=O)(=O)N1CCOCC1 (stereo not drawn)               Ki    790
2  Cc1ccc(-c2nc(CC(C)(C)C)c[nH]2)cc1S(=O)(=O)N1CCOCC1               Ki   1100

Would you kindly share the measured Ki for Cc1ccc(-c2noc(CC3CCCCC3)n2)cc1S(=O)(=O)N1CCOCC1 ?
740
